- Test system: HS 578T breast
- method: NCI-60 one-dose screen, 48 h (100 = growth as untreated, 0 = no growth, -100 = all killed)
- measurement-setup: 10 µM unless noted
Compounds without any hit were thinned out: in the full panel of roughly 83,000, 20% have a hit. Active and inactive are the calls of the source. How the source made its calls: active means growth percent below 10; inactive means the rest.
parameter: growth

                                    compound   target_entity    value_observed
 0     Oc1ccc(Nc2nccc(-c3ccc4ccccc4c3)n2)cc1  HS 578T breast  42.8% (inactive)
 1  CNCc1cccc2c1OCCOCCOCCN(C)S(=O)(=O)c1ccc(cc1)-c1cnc(N)c(n1)C(=O)N2  HS 578T breast  56.9% (inactive)
 2  COc1cccc(-c2nc3sccn3c2-c2ccnc(NCCCNS(=O)(=O)c3ccccc3)c2)c1  HS 578T breast  66.8% (inactive)
 3  COc1ccc(-c2cc(-c3cccnc3)nc3sc4c(=O)n(-c5ccc(C)cc5)cnc4c23)cc1OC  HS 578T breast  87.2% (inactive)
 4        NC(=S)N/N=C/c1cc(-c2cccc(N)c2)ccn1  HS 578T breast  38.1% (inactive)
 5                    Nc1ccc2c(c1)C(=O)NC2=O  HS 578T breast  93.5% (inactive)
 6   O=C(O)c1ccccc1Nc1cccc(S(F)(F)(F)(F)F)c1  HS 578T breast  99.2% (inactive)
 7       COc1cc(-c2cnc3nonc3n2)c(OC)c2c1OCO2  HS 578T breast   105% (inactive)
 8  CCCC(=O)Oc1ccc(/C(=C(/CC)Cc2ccccc2)c2ccc(OCCN3CCCC3)cc2)cc1  HS 578T breast  82.7% (inactive)
 9      COc1ccc(-c2c(C)noc2-c2ccc(O)cc2O)cc1  HS 578T breast   106% (inactive)
10  Cc1nn(-c2ccccc2)c2nc(C)n(-c3ccc(Br)cc3)c(=O)c12  HS 578T breast    15% (inactive)
11  CC(=O)Oc1cc2cnc3c4cc(OC(C)=O)c(OC(C)=O)cc4ccc3c2cc1OC(C)=O  HS 578T breast  28.1% (inactive)
12  C=C1CCC2C3(C)COC(c4ccccc4Br)OC3CCC2(C)C1C/C=C1/C(=O)OCC1OC(C)=O (stereo unspecified)  HS 578T breast   -30.9% (active)
13  Cc1cc(N/N=C/c2nc(-c3ccc(Cl)cc3)oc2C)c2cc(Cl)ccc2n1  HS 578T breast  73.1% (inactive)
14  CCN(CC)C12CCCCC1(C)C(C#N)(C#N)C(C#N)=C(N)O2 (stereo unspecified)  HS 578T breast   120% (inactive)
15             CNC(=S)N/N=C/CSC/C=N/NC(=S)NC  HS 578T breast   107% (inactive)
16  COCCCNc1nc(NC(=O)c2ccc(F)cc2C)cc(-c2cccnc2)n1  HS 578T breast    94% (inactive)
17  O=C(COc1cccc(/C=C2/Oc3ccccc3C2=O)c1)Nc1nccs1  HS 578T breast  88.6% (inactive)
18  CS(=O)(=O)c1ccc(-c2cnc3ccc(-c4cccc(S(C)(=O)=O)c4)nn23)cc1  HS 578T breast    10% (inactive)
19  CN1Cc2c(cc(CN3CCCCC3)n2C)C(c2ccc(Br)cc2)C1 (stereo unspecified)  HS 578T breast  76.3% (inactive)
20  CN1/C(=C\C=C\C2=[N+](C)c3ccccc3C2(C)C)C(C)(C)c2ccccc21  HS 578T breast  23.4% (inactive)
